Source: PubChem BioAssay (NCI)

Tested on: MOLT-4 leukemia
Assay: NCI-60 one-dose screen, 48 h (100 = growth as untreated, 0 = no growth, -100 = all killed)
Settings: 10 µM unless noted
Description: Growth inhibition of the MOLT-4 human tumor cell line is measured as a screen for anti-cancer activity. Cells are grown in 96 well plates and exposed to the test compound for 48 hours. Compounds are tested at a single concentration, which is 10^-5 M for most compounds. The reported endpoint is percent growth (GI% or GIPRCNT), where numbers from 0 - 100% represent growth inhibition, and numbers from -100% - 0 represent cell death. For example, a value of 40 represents 60% growth inhibition. […]
About 83,000 compounds went through this panel and 20% of them were active in at least one assay; those are over-represented in the sample as a whole.
Measured growth accompanies every entry in the list below.
reportedEndpoint: growth (%)

> print(dat)
                                    compound  numericreadout
 1  CCN1C(=O)N(CC)C2Nn3c(s/c(=C\c4ccccc4F)c3=O)=NC21 (stereo not given)              44
 2      Cc1ccc2cc3c(N)c4c(C)ccc(C)c4nc3nc2c1            44.8
 3  O=C(Nc1ncc(Cc2cccc(C(F)(F)F)c2)s1)C1COc2ccccc2O1 (stereo not given)            80.2
 4  CC1=C(C(=O)OCC2CCN(C(=O)OC(C)(C)C)CC2)[C@H](c2cccc(C#N)c2)C2=C(CC(C)(C)CC2=O)N1            25.3
 5  O=C(CN1C=NC2C(N3CCOCC3)=NC=NC21)c1cccc2ccccc12 (stereo not given)            93.3
 6  Clc1ccc(Oc2ccc(Nc3ncnc4onc(-c5ccccc5)c34)cc2)c(Cl)c1            89.8
 7  CN1CCN(Cc2ccc(C(=O)Nc3cncc(C#Cc4cnc(N)c5ccccc45)c3)cc2C(F)(F)F)CC1             -30
 8  COc1ccccc1N1C(=N)S/C(=C\c2ccc(OCc3ccccc3F)cc2)C1=O              53
 9        O=C1OC(c2ccccc2)(c2ccccc2)c2ccsc21              76
10  COC(=O)c1c2c(c(C)[n+]([O-])c1C)C(=O)C(NCc1ccc(F)c(F)c1)=CC2=O            8.41

---

tested on: HCT-116 colon; assay: NCI-60 one-dose screen, 48 h; conditions: 10 µM unless noted
Compounds without any hit were thinned out: in the full panel of roughly 83,000, 20% have a hit. Calls of active or inactive are those of the source. How the source made its calls: active means growth percent below 10; inactive means the rest.
Classes used: true (1) = active, false (0) = inactive

> print(dat)
                                    compound  assignedcategory
 1   COc1ccc2sc3c(NCCCN)nc4ccccc4c3c(=O)c2c1          true (1)
 2  O=C(/C=C/c1ccc(Cl)cc1)c1ccc(Nc2nc(NCCO)nc(Nc3ccc(Cl)cc3)n2)cc1          true (1)
 3          O=C(O)CCC(=O)c1ccc(C2CCCCCC2)cc1         false (0)
 4  COc1ccc(Cn2cc(Cn3c(=O)c(-c4nc5ccccc5[nH]4)cc4ccccc43)nn2)c(OC)c1OC          true (1)
 5  COc1ccc(C2Nc3nc(OC)n(C)c(=O)c3N=C3c4ccccc4C(=O)C32)cc1 (stereo unspecified)         false (0)
 6              O=c1nc2sc3nc4ccccc4cc3cc-2s1         false (0)
 7  COc1ccc(N(C)c2nc(N)nc3sc4c(c23)CCCC4)cc1          true (1)
 8  COc1ccc(C2=C(c3cccc(OC)c3)C(=O)c3ccc(C)nc3C2=O)cc1         false (0)
 9  CCOC(=O)c1cc2c(n1Cc1cccc(OC)c1)-c1oncc1CCC2         false (0)
10   Cc1ccc(F)cc1NC(=O)c1cc(Cl)ccc1Nc1ccccc1         false (0)
11  COc1ccc2oc(=O)cc(Cn3cc(Cn4cnc5c4c(=O)n(C)c(=O)n5C)nn3)c2c1         false (0)
12  COc1c(B(O)O)cccc1-c1nc2ccc3[nH]ncc3c2c2c1C1CCC2C1 (stereo unspecified)         false (0)
13  CCCN1C(=O)N(CCC)C2C1NN=c1s/c(=C3\C(=O)N(C(C)C)c4ccccc43)c(=O)n12 (stereo unspecified)         false (0)
14  COc1ccc2occ(C3=C(c4c[nH]c5ccccc45)C(=O)NC3=O)c2c1         false (0)
15  CCOC(=O)C1=C(C)N=c2s/c(=C\c3cc(Cl)ccc3O)c(=O)n2C1c1ccc(OC)cc1 (stereo unspecified)         false (0)
16  CC1CCCCN1CCCNC(=O)c1ccc2c(c1)sc1nc(-c3ccc(F)cc3)cn12 (stereo unspecified)         false (0)
17              COc1ccc(CCN2C(=O)CCSC2=S)cc1         false (0)
18  Cc1nn(-c2nc3ccccc3[nH]2)c2c1C(c1ccc(OCC(N)=O)cc1)CC(=O)N2 (stereo unspecified)         false (0)
19  Nc1ccn(C2O[C@H](CO)[C@@H](O)[C@H]2O)c(=O)n1 (stereo partly specified)         false (0)
20              COc1ccccc1C(=O)/C=C/c1ccccc1         false (0)
21  COC(=O)c1c2c(c(C)[n+]([O-])c1C)C(=O)C=C(NCc1ccc(F)c(F)c1)C2=O          true (1)

---

Measured growth accompanies every entry in the list below.
system: SW-620 colon; test: NCI-60 one-dose screen, 48 h (100 = growth as untreated, 0 = no growth, -100 = all killed); details: 10 µM unless noted
About 83,000 compounds went through this panel and 20% of them were active in at least one assay; those are over-represented in the sample as a whole.

molecule	growth, %
O=c1nc2sc3nc4ccccc4cc3cc-2s1	107
CN(C)c1ccc(N=Cc2ccc(N3CCOCC3)cc2)cc1	44.2
COC(=O)[C@H](NC(=O)C1(C)CCC[C@]2(C)[C@H]3C[C@H]4C(C(C)C)=C[C@]3(CC[C@@H]12)[C@@H]1C(=O)CCC(=O)[C@@H]14)C(C)C (some centres undefined)	106
Cc1cccc2c(=O)c3c(sc12)c(N1CCNCC1)nc1ccccc13	27.6
O=C1CCC(N2C(=O)c3cccc(NCCCCCCOc4ccc(Nc5nccc(Nc6ccccc6)n5)cc4)c3C2=O)C(=O)N1 (centres undefined)	91
O=C1N=c2ccccc2=C1c1sc(=Nc2ccccc2)n(Nc2ccccc2)c1O	108
COc1ccccc1C(=O)O/N=C(\N)Cc1cccc2ccccc12	97.3
O=C(Nc1ncc(Cc2cccc(C(F)(F)F)c2)s1)C1COc2ccccc2O1 (centres undefined)	81
O=c1oc2ccc(-c3ccc(F)cc3F)cc2c(=O)n1-c1ccc(Cl)c(C(F)(F)F)c1	14.6

---

system: TK-10 renal; assay: NCI-60 one-dose screen, 48 h; settings: 10 µM unless noted
The panel holds about 83,000 compounds, 20% with a hit somewhere; the sample as a whole holds those more often. Activity calls are given as the source filed them. How the source made its calls: active means growth percent below 10; inactive means the rest.
Classes used: active, inactive

compound	assignedCategory
CCOC(=O)c1cnc2c(C)cccc2c1Nc1ccc(C(C)=O)cc1	inactive
O=C1/C(=C\c2ccc[nH]2)c2ccccc2N1c1ccccc1	inactive
COC(=O)/C(=C\c1c(C)[nH]c2ccccc12)S(=O)(=O)c1ccccc1	inactive
O=C(c1ccccc1)N(C(=S)NCCc1ccc(Cl)cc1)c1ccccc1	inactive
CCOC(=O)c1cc2c(n1Cc1ccccc1OC)-c1oncc1CCC2	inactive
NCCOc1ncccc1/C=C1\c2ccccc2-c2ccc([N+](=O)[O-])cc21	active
CC(C)C[C@H](C(=O)N[C@@H](C)C(N)=O)N1CC=CCN(O)S1(=O)=O	inactive
COc1ccc(C2=Nn3c(NN)nnc3SC2)cc1	inactive
O=C(c1nc2ccccc2[nH]1)C1[C@@H](c2cccc(O)c2)C2CC3CCCCC3N2[C@@]12C(=O)Nc1cc(Cl)ccc12 (some centres undefined)	inactive
COC(=O)C1=C(C)NC(C)=C(C(=O)OC)C(N2C(=O)CCC2=O)C1 (centres undefined)	inactive
c1ccc(CNc2nc(Nc3ccccc3)nc3ccccc23)cc1	inactive
O=C(NC1CCN(Cc2ccccc2)CC1)c1cc2nc(-c3ccc(Cl)s3)cc(C(F)(F)F)n2n1	inactive
COC(=O)/C(=C\c1c(-c2ccccc2)[nH]c2ccccc12)S(C)(=O)=O	inactive
Cn1cc([C@@H]2Nc3ccc4[nH]ncc4c3[C@H]3[C@H]4CCC(C4)[C@H]32)c(C(F)(F)F)n1	inactive
O=c1c2cc(F)ccc2sc2c(Nc3ccncc3)nc3ccccc3c12	inactive
COc1ccc(C2=NN(/C=C3\SC(=O)NC3=Nc3ccc(F)cc3)C(c3ccc(F)cc3)C2)cc1 (centres undefined)	inactive
CCOC(=O)c1cc2c(n1Cc1cc(OC)c(OC)c(OC)c1)-c1oncc1CCC2	inactive
CN1C(=O)N(C)C2C1NN=c1s/c(=C\c3ccc([N+](=O)[O-])cc3)c(=O)n12 (centres undefined)	inactive
Cc1ccc2nc(NC(=O)CSC(=S)N3CCN(c4ccccc4)CC3)sc2c1	inactive
Cc1ccc2[nH]c(=O)cc(-n3nncc3Cn3c4ccccc4c4ccccc43)c2c1	inactive
CCCCc1c(CCC)c(=N)c2ccccc2n1C	inactive
COc1cc(/C=C2\CCC/C(=C\c3cc(CN4CCOCC4)c(O)c(OC)c3)C2=O)cc(CN2CCOCC2)c1O	inactive
COc1cccc(-c2nn(C)c3sc(C(=O)NCCN4CCN(c5ccccc5F)CC4)cc23)c1	inactive
O=c1oc2ccc(Cl)cc2c(=O)n1-c1ccc(I)cc1F	inactive
COc1ccc(Cn2c(Br)c3c(c2Br)-c2nc(N)sc2CC3)cc1	inactive
O=[N+]([O-])c1cc2c(ccc3occc32)o1	inactive
Cc1ccc(F)cc1NC(=O)c1cc(Cl)ccc1Nc1ccccc1	inactive
CC/C=C\C[C@H](O)C/C=C1/C(=O)C=C[C@@H]1C/C=C\CCCC(=O)OCCS(=O)(=O)c1ccccc1	inactive
C#CCn1cc(C=C2C(=O)N(C)C(=O)N(C)C2=O)c2cc(Cl)ccc21	inactive
COC(=O)/C(CCC=C(C)C)=C1\[C@@H](OC(C)=O)C[C@@]2(C)[C@H]1C[C@@H](O)[C@H]1[C@@]3(C)CC[C@H](NCc4ccccc4)[C@@H](C)[C@@H]3CC[C@@]12C	inactive
O=C1CCC(N2C(=O)c3cccc(NCCCCCCOc4ccc(Nc5nccc(Nc6ccccc6)n5)cc4)c3C2=O)C(=O)N1 (centres undefined)	inactive
COc1ccc(-c2nc(N3CCN(C(=O)C4CCCCC4)CC3)c3c4c(sc3n2)CCCC4)cc1	active
CC1=C(C(=O)OCC2CCN(C(=O)OC(C)(C)C)CC2)[C@@H](c2cccc(C#N)c2)C2=C(CC(C)(C)CC2=O)N1	inactive
COc1ccc(-c2c(-c3ccc(OC)c(O)c3)cnc3ncnn23)cc1	inactive
OC(CNC1CCCCC1)Cn1c2ccc(I)cc2c2cc(I)ccc21 (centres undefined)	inactive
COc1ccc(C2NCCc3c2[nH]c2ccccc32)cc1CN1CCN(c2ccc(F)cc2)CC1 (centres undefined)	inactive
NC(=O)CSc1nc(-c2ccc(F)cc2)cc(-c2ccco2)n1	inactive
COc1cc(CNC(=O)c2ccsc2Nc2ccnc(C(F)(F)F)c2)ccc1O	inactive
C[C@@H](C(=O)NCCCC#Cc1cnc(Nc2ccc(C#N)cc2)nc1NC1CC1)N(C)C(=O)/C=C/CN(C)C	inactive
